Values were extracted from the METLIN SMRT retention time set (Domingo-Almenara et al. 2019).

# TEST_PROTOCOL: gradient 5% acetonitrile 3 min, to 50% in 2 min, to 85% in 15 min, held 3 min, 100 µL/min
# CONDITIONS: column: Zorbax Extend-C18 2.1 x 50 mm; eluents: water / acetonitrile, 0.1% formic acid
ATTRIBUTE_MEASURED: RP-LC retention time (s)

These solved cases illustrate the format of a correct answer.
COMPOUND | ATTRIBUTE_MEASURED | UNIT_INFO | REPORTED_MEASUREMENT
CC1CCC(C(=O)Nc2cc3c(cc2N2CCCCC2)n(C)c(=O)c(=O)n3C)CC1 (stereo not given) | RP-LC retention time | s | 1050
CCn1nc2ccc(S(=O)(=O)N3CCC(C)CC3)cn2c1=O | RP-LC retention time | s | 827
CC(C)c1csc(-c2csc(S(=O)(=O)NCc3ccc4c(c3)OCO4)c2)n1 | RP-LC retention time | s | 1050

(I) Cc1c(NC(=O)Nc2c(Cl)cccc2Cl)c(=O)n(-c2ccccc2)n1C
(II) CCN(CC)c1nc2cc(C(=O)OC)ccc2c(=O)n1CCc1ccccc1
Task: Which shows the larger RP-LC retention time value: I or II ? // caller expects the label of the chosen entry
Result: II

====

# TEST_PROTOCOL: gradient 5% acetonitrile 3 min, to 50% in 2 min, to 85% in 15 min, held 3 min, 100 µL/min
# CONDITIONS: column: Zorbax Extend-C18 2.1 x 50 mm; eluents: water / acetonitrile, 0.1% formic acid
ATTRIBUTE_MEASURED: RP-LC retention time (s)

MOLECULE | RP-LC retention time / s
CCc1noc([C@@H]2CC(F)(F)CN2C(=O)Cn2ccnc2)n1 | 570

(A) Cc1cccc2nc(-c3ccc(Cl)cc3)c(Nc3ccc4c(c3)OCO4)n12
(B) Cc1ccc(-c2noc(CCn3nc(-c4ccc(C)c(C)c4)ccc3=O)n2)cc1
Task: Could you check which of A and B has a smaller value for RP-LC retention time? // caller expects the label of the chosen entry
Result: A

(1) Cn1cc(C(=O)NCc2ccc(N3CCCCC3)cc2)c2cccnc21
(2) COc1cccc(-n2c(=O)c3sccc3n(Cc3nc(-c4ccc(Cl)c(F)c4)no3)c2=O)c1
Task: Which shows the larger RP-LC retention time value: 1 or 2 ? // caller expects the label of the chosen entry
Result: 2

====

# TEST_PROTOCOL: gradient 5% acetonitrile 3 min, to 50% in 2 min, to 85% in 15 min, held 3 min, 100 µL/min
# CONDITIONS: column: Zorbax Extend-C18 2.1 x 50 mm; eluents: water / acetonitrile, 0.1% formic acid
ATTRIBUTE_MEASURED: RP-LC retention time (s)

These solved cases illustrate the format of a correct answer.
COMPOUND | UNIT_INFO | RP-LC retention time
CCc1ccc(NC(=O)N2CCN(c3cc(C)nc(N4CCOCC4)n3)CC2)cc1 | s | 668
Cc1ccc(-c2cn3cccnc3n2)cc1NC(=O)c1cccc(Br)c1 | s | 723
Cc1nn(-c2ccc(N3CCOCC3)nn2)c(C)c1CCC(=O)NCCc1ccco1 | s | 661
O=C(CSc1ccc(-c2cccs2)nn1)N1CCN(c2ccccc2)CC1 | s | 848
N#Cc1ccc(NC(=O)Cc2csc3nc(-c4ccccc4)cn23)cc1 | s | 763

(a) O=C(c1cc(-c2ccccc2)n[nH]1)N1CCN(c2ccc(N3CCOCC3)nn2)CC1
(b) CC1Oc2ccc(-c3csc(NC(=O)c4ccc(Cl)cc4)n3)cc2N(C)C1=O (centres undefined)
Task: Which shows the larger RP-LC retention time value: a or b ? // caller expects the label of the chosen entry
Result: b
(b: 1040 s, a: 595 s)

====

# TEST_PROTOCOL: gradient 5% acetonitrile 3 min, to 50% in 2 min, to 85% in 15 min, held 3 min, 100 µL/min
# CONDITIONS: column: Zorbax Extend-C18 2.1 x 50 mm; eluents: water / acetonitrile, 0.1% formic acid
ATTRIBUTE_MEASURED: RP-LC retention time (s)

These solved cases illustrate the format of a correct answer.
COMPOUND | RP-LC retention time, s
O=C(CSCc1ccccc1)NCCNC(=O)c1ccc(NC(=O)C2CC2)cc1 | 683
Cn1cccc1C(=O)C(=O)N1CCN(Cc2ccc3c(c2)OCO3)CC1 | 596
CCc1ccc(-c2noc(Cn3c(=O)n(-c4ccc(OC)cc4)c(=O)c4sccc43)n2)cc1 | 1150

(A) O=S(=O)(c1cccnc1)N1CC(n2cc(COc3ccc(F)cc3)nn2)C1
(B) CCOc1ccc(-n2nnc(-c3nc(-c4ccc(C(C)C)cc4)cs3)c2N)cc1
Task: Which shows the larger RP-LC retention time value: A or B ? // caller expects the label of the chosen entry
Result: B

(P) CCOc1ccc(N2C(=O)Nc3ccccc3C2(O)C(=O)NCCCN2CCC(C)CC2)cc1 (centres undefined)
(Q) Cc1oc(-c2ccc(NC(=O)CCc3ccccc3)cc2)nc1Cn1cccn1
Task: Could you check which of P and Q has a smaller value for RP-LC retention time? // caller expects the label of the chosen entry
Result: P

(P) CCc1noc(-c2ccnc(-n3ncc(C(=O)NC4CCCCC4)c3C)c2)n1
(Q) O=C(CCCc1ccccc1)NCC(=O)N1CCN(c2ccccn2)CC1
Task: Could you check which of P and Q has a smaller value for RP-LC retention time? // caller expects the label of the chosen entry
Result: Q
(Q: 605 s, P: 1020 s)

(I) Cc1cccc(-c2nc(Cn3nnc(C(=O)NCc4ccc(C(C)C)cc4)c3C)c(C)o2)c1
(II) COc1ccccc1-c1noc(Cn2nc(-c3ccc4c(c3)OCO4)ccc2=O)n1
(III) COCC1CN(C(=O)c2sccc2C)CC12CCNCC2 (centres undefined)
Task: Put these in order: smallest RP-LC retention time first, largest last. # list labels per requested ordering
Result: III, II, I
(III: 575 s, II: 877 s, I: 1310 s)

====

# TEST_PROTOCOL: gradient 5% acetonitrile 3 min, to 50% in 2 min, to 85% in 15 min, held 3 min, 100 µL/min
# CONDITIONS: column: Zorbax Extend-C18 2.1 x 50 mm; eluents: water / acetonitrile, 0.1% formic acid
ATTRIBUTE_MEASURED: RP-LC retention time (s)

COMPOUND | RP-LC retention time / s
Cc1ccc(CNC(=O)c2ccc3ncnc(N4CCCC4)c3c2)o1 | 617
O=C(Nc1cccc(Cl)c1)Nc1cccc(-c2ccc3nncn3n2)c1 | 734
COC(=O)CNC(=O)N1CCCC1c1ccc(C)cc1 (stereo not given) | 739
COc1ccccc1-n1nnc(C(=O)OCc2nc(-c3ccccc3)oc2C)c1C | 972
COC(=O)C1=CN(c2cc(OC)ccc2OC)c2ccc(F)cc2S1(=O)=O | 874

====

# TEST_PROTOCOL: gradient 5% acetonitrile 3 min, to 50% in 2 min, to 85% in 15 min, held 3 min, 100 µL/min
# CONDITIONS: column: Zorbax Extend-C18 2.1 x 50 mm; eluents: water / acetonitrile, 0.1% formic acid
ATTRIBUTE_MEASURED: RP-LC retention time (s)

These solved cases illustrate the format of a correct answer.
COMPOUND | REPORTED_MEASUREMENT
O=C(NCc1ccc(F)cc1)C1CCc2nc(N3CCOCC3)ncc2C1 (stereo not given) | 808
COc1cc([C@@H]2c3cc4c(cc3[C@H](O)[C@@H](CO)[C@@H]2C(=O)NCc2cc(F)cc(F)c2)OCO4)cc(OC)c1OC | 737
Cc1cc2c(cc1S(=O)(=O)N1CCCC1)N(C(=O)C1CC1)CC2 | 876

(P) CCCCn1c(CN2CCCC2)nc2cc(NC(=O)CC)ccc21
(Q) Cc1ccc(N2C(=O)C3N=NN(Cc4nc(-c5ccc(Br)cc5)no4)C3C2=O)cc1 (stereo not given)
Task: Which shows the larger RP-LC retention time value: P or Q ? // caller expects the label of the chosen entry
Result: Q
(Q: 1070 s, P: 605 s)

(a) CC(C)C(NC(=O)c1ccco1)c1nc(-c2ccc3c(c2)ncn3C)no1 (stereo not given)
(b) CCOC(=O)N1CCc2c(sc(NC(=O)c3cc(C)on3)c2C(=O)OC)C1
Task: Which shows the larger RP-LC retention time value: a or b ? // caller expects the label of the chosen entry
Result: b

(a) CCCCc1ccc(N2C(=O)C3N=NN(Cc4nc(-c5ccc(Cl)cc5)no4)C3C2=O)cc1 (stereo not given)
(b) CCC(C(=O)NCCN1CCN(C)CC1)n1nc(C)c2sc3ccccc3c2c1=O (stereo not given)
Task: Could you check which of a and b has a smaller value for RP-LC retention time? // caller expects the label of the chosen entry
Result: b

====

# TEST_PROTOCOL: gradient 5% acetonitrile 3 min, to 50% in 2 min, to 85% in 15 min, held 3 min, 100 µL/min
# CONDITIONS: column: Zorbax Extend-C18 2.1 x 50 mm; eluents: water / acetonitrile, 0.1% formic acid
ATTRIBUTE_MEASURED: RP-LC retention time (s)

These solved cases illustrate the format of a correct answer.
COMPOUND | RP-LC retention time (s)
COc1ccc(NC(=O)CSc2ccc(N3CCCC(C(=O)NC4CC4)C3)nn2)cc1 (centres undefined) | 617
O=C(NC1CC1)c1nc(-c2ccncc2)cs1 | 574
CC(C)OCCCNC(=O)C1CCN(S(C)(=O)=O)c2cc(Cl)ccc2O1 (centres undefined) | 838
CC(NC(=O)c1ccc(N(C)C)cc1)C(=O)N1CCCc2ccccc21 (centres undefined) | 846
O=C(Nc1cnc(N2CCCC2)nc1)c1cc(F)cc(F)c1 | 765

(a) Cc1ccc(NC(=O)N2CCc3c(c(-c4nnc(-c5ccc(F)cc5)o4)nn3C)C2)c(Cl)c1
(b) CC(C)CN1CCN(C(=O)CN2CCN(Cc3ccc(F)cc3Cl)C2=O)CC1
Task: Could you check which of a and b has a smaller value for RP-LC retention time? // caller expects the label of the chosen entry
Result: b

(1) O=S(=O)(Cc1nc(-c2ccc(Br)cc2)no1)c1ccccc1
(2) CCc1ccccc1NC(=O)C1CCCN(S(=O)(=O)c2cn(CC)cn2)C1 (centres undefined)
Task: Could you check which of 1 and 2 has a smaller value for RP-LC retention time? // caller expects the label of the chosen entry
Result: 2
(2: 726 s, 1: 1040 s)

(I) COc1ccc(Cc2nnc(SCC(=O)Nc3nc(-c4ccccc4)c(C)s3)o2)cc1
(II) Cn1nc(C(=O)N2CCCC(C(=O)NC3CC3)C2)c2c1CCN(C(=O)Cc1ccc(Cl)cc1)C2 (centres undefined)
Task: Could you check which of I and II has a smaller value for RP-LC retention time? // caller expects the label of the chosen entry
Result: II
